# pIC50 per entry
Target: bovine cardiac myofibrils (full-length cardiac myosin ATPase in the native sarcomere) (Bos taurus (Bovine), UniProt Q9BE39)
Sequence (Q9BE39 whole entry): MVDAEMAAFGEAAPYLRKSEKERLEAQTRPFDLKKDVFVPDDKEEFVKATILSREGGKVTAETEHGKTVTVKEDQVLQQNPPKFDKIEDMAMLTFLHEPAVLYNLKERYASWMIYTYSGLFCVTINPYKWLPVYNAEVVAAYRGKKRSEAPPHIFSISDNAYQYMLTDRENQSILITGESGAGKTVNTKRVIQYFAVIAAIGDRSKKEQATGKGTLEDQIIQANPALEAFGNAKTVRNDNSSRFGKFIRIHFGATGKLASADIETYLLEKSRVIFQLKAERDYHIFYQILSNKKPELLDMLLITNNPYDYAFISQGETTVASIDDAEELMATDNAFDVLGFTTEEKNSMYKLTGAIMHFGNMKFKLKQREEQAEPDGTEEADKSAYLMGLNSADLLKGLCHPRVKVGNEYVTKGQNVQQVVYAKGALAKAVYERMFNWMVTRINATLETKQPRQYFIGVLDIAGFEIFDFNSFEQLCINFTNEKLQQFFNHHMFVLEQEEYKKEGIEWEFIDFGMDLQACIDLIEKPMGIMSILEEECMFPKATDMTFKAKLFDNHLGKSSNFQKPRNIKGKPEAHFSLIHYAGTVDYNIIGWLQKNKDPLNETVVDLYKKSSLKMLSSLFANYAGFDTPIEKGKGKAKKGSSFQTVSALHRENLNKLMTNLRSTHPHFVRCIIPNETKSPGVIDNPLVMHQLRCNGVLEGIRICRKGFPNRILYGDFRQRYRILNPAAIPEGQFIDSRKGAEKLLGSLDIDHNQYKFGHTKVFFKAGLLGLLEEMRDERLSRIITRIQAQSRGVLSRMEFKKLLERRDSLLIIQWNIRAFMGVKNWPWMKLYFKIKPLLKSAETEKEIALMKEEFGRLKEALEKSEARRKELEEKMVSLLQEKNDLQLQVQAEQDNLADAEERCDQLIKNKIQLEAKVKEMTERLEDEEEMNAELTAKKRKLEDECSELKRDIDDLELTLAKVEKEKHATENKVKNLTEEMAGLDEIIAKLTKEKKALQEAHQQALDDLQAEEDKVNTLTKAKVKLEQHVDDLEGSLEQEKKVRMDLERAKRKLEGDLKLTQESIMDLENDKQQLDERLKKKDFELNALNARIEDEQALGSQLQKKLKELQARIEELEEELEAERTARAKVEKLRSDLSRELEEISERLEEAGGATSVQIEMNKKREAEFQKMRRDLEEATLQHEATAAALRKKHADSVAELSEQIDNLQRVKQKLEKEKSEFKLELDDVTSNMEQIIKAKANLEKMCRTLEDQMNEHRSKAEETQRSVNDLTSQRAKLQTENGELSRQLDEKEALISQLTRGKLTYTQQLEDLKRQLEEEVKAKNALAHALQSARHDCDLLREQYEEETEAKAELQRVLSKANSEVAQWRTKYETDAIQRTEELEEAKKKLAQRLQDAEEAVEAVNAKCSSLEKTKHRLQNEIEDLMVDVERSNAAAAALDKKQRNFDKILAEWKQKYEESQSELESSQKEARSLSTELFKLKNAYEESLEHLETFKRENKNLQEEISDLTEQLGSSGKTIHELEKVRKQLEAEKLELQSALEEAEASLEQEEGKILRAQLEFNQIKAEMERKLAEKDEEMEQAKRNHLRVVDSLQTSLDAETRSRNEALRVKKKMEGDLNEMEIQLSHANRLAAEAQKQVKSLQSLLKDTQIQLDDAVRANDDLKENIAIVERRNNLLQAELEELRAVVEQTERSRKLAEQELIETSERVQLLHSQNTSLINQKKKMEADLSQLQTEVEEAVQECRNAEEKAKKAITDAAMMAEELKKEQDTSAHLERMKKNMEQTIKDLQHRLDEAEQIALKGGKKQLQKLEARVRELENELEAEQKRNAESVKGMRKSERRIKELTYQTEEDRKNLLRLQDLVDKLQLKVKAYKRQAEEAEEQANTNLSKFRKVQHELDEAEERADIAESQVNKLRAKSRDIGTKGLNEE
Sequence (P85100 whole entry partner): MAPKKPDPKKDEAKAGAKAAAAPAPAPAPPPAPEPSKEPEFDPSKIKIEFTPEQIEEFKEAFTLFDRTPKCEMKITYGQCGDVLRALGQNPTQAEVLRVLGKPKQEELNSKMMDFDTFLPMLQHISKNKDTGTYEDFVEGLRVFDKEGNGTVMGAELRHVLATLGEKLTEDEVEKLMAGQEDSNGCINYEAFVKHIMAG
Sequence (Q3SZE5 whole entry partner): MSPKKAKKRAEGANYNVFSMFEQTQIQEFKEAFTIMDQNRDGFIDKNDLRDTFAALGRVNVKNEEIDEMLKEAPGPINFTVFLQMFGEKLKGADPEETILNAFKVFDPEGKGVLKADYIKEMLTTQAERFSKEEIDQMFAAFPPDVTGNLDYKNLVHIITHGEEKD
Test: Skinned bovine cardiac myofibril ATPase assay (PK/LDH-coupled)
Conditions: Ca2+ activating to 75% of maximal rate, read-out: CDMF75 IC50
Description: To evaluate the effect of compounds on the ATPase activity of full-length cardiac myosin in the context of the native sarcomere, skinned myofibril assays were performed. […] Small molecule agents were assessed for their ability to inhibit the steady-state ATPase activity of bovine cardiac myofibrils using pyruvate kinase and lactate dehydrogenase (PK/LDH)-coupled enzyme system. This assay regenerates myosin-produced ADP into ATP by oxidizing NADH, producing an absorbance change at 340 nm. […]
pIC50: −log10 of the molar value.

COMPOUND | QUAL | pIC50
Cn1nccc1C(=O)N[C@@H]1CCc2cc(-c3noc(C4CC4(C)C)n3)ccc21 (some centres unmarked) | = | 5.26
Cc1noc(-c2ccc3c(c2)CC[C@H]3NC(=O)c2cn(C)nc2C)n1 | = | 5.27
CCc1nc(-c2ccc3c(c2)CC[C@H]3NC(=O)C2CCCC(=O)N2)no1 (some centres unmarked) | < | 4.41
COCc1nc(-c2ccc3c(c2)CC[C@H]3NC(=O)c2cc(C)no2)no1 | = | 5.17
[2H]C([2H])([2H])c1nc(-c2ccc3c(c2)OC[C@H]3NC(=O)c2cc(C)nn2C)no1 | = | 5.57
Cc1nc(-c2ccc3c(c2)CCC3NC(=O)c2cnn(C)n2)no1 (centres unmarked) | = | 4.91
O=C(N[C@@H]1CCc2cc(-c3noc(C(F)F)n3)ccc21)c1cc(CO)ccn1 [Compound 666] | = | 5.47
CCc1nc(-c2ccc3c(c2)CC[C@H]3NC(=O)c2cnc(CO)n2C)no1 | = | 5.85

Data credit: patent US12065436B2
